The origin of these recorded values is patent US20240109974A1.

Target: T1, human TNFR2 on the surface of CHO-TNFR2 cells (human, UniProt P20333 23-461)
T1 construct: whole, on cells
T1 sequence (looked up): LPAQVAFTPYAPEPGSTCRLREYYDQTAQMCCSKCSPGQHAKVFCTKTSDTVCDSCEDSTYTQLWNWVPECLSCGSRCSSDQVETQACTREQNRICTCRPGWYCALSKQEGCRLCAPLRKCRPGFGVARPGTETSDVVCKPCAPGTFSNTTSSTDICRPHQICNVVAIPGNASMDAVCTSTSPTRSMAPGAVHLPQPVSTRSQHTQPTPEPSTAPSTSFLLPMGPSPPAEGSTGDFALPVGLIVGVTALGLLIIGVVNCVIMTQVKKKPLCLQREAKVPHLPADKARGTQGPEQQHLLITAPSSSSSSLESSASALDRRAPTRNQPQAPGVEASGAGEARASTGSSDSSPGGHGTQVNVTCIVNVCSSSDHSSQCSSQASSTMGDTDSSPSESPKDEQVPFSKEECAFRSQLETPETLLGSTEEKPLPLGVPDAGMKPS
Test: flow cytometry on CHO-TNFR2 cells; area under the MFI fold curve
Measure Name: AUC
// return just the number, without any unit appended

Consider the worked cases shown below.
224-Hu1 (antibody, V domains shown, Humanized form of #224; also called VH8 + VL6) VH: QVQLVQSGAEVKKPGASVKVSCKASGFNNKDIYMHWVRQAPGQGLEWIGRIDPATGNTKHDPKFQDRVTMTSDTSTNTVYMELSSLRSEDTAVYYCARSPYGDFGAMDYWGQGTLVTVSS VL: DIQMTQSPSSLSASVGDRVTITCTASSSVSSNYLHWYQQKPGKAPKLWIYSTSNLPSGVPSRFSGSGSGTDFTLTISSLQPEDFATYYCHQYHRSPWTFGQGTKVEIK	642
224-Hu7 (antibody, V domains shown, Humanized form of #224; also called VH9 + VL10) VH: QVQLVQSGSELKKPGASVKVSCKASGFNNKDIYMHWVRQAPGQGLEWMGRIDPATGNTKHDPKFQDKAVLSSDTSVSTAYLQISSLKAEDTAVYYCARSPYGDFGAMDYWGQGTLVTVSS VL: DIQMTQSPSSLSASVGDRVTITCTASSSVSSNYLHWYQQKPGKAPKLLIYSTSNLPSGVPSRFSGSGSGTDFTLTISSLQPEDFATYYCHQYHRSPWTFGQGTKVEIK	608
224-Hu2 (antibody, V domains shown, Humanized form of #224; also called VH9 + VL7) VH: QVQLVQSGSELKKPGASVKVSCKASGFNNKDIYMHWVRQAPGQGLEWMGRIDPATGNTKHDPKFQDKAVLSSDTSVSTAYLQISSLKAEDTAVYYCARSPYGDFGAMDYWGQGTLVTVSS VL: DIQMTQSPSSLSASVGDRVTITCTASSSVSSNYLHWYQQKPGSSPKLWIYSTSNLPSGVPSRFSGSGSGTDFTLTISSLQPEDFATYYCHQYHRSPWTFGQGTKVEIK	672
001-Hu4 (antibody, V domains shown, Humanized form of #001; also called VH2 + VL4) VH: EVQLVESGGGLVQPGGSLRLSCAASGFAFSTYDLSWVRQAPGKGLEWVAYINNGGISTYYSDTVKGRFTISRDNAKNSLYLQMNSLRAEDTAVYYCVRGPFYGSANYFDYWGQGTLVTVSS VL: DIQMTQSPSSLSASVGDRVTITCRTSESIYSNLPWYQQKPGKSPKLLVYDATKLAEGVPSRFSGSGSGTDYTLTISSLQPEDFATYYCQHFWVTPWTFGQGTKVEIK	452

Documented AUC of 219-WT (antibody, V domains shown, Human-murine chimeric wild-type molecule) VH: EVQLQESGAELVRPGASVKLSCKASGYSFTNYWMNWVKQRPGQGLEWIGMIHPSDTETRLNQNFKDKATLTVDKSSSTSYMQLSSPTSEDSAVYYCARGEGLGAARSVSMDYWGQGTTVTVSS VL: DILMTQSPSSLSASLGDRVTISCRASQDISNYLNWYQQKPDGTVKVLIYYTAILHSGVPSRFSGSGSGTDYSLTISNLEQEDIATYFCQQGNTLPWTFGGGTKLEIK : 516
